Target: MAGI2_6, Q86UL8
Sequence (Q86UL8 1141-1229): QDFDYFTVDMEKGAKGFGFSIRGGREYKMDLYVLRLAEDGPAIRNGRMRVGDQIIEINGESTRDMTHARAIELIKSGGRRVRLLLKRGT
Test: holdup assay
Parameters: key: below the threshold = too weak to quantify, mostly under pKd 3.1 to 4
Conditions: plain residues with an end cap or a label only (N-terminal biotin on a linker: ado-ado)
Entries and their measured pKd follow.
Recorded Endpoint: pKd

>>> print(df.to_string())
                              binder  numeric_readout
0       PTPDLPQTRV [KLHDC7A, Q5VTJ3]             3.61
1         EIPAQSPTCV [FZD10, Q9ULW2]             3.85
2         GEDRSPPTAL [MKNK1, Q9BUB5]             3.57
3  KSRVAFFEEL [NF2, P35240;P35240-1]             4.05
